Let's look at some compounds and their measured IC50.
MEASUREMENT TARGET: Human plasma kallikrein (Homo sapiens)
Construct: yields a heavy chain (371 amino acids) and a light chain (248 amino acids)
PROTOCOL SUMMARY: Plasma Kallikrein Assay
MEASUREMENT CONDITIONS: purified Human plasma kallikrein 0.5 nM, substrate Acetyl-K-P-R-AFC, pH 7.4

Worked set:
1. CC(c1cnc(N2CC[C@H]2CN[C@@H]2CCC[C@H]2O)nc1)n1cc(NC(=O)c2cncc(-c3c(C(F)F)ccc(Cl)c3F)n2)cn1 (stereo partly drawn) [Example 181]    4.2 nM
2. O=C(Nc1cnn(Cc2ccc(N3CC4CCC(C3)N4)nc2)c1)c1cncc(-c2c(C(F)F)ccc(Cl)c2F)n1 [Example 204]    17.5 nM

Request: Bench note: what IC50 did C[C@H](c1cnc(N2C[C@H]3C[C@H]3[C@H]2C#N)nc1)n1cc(NC(=O)c2cncc(-c3c(C(F)F)ccc(Cl)c3F)n2)cn1 (single isomer, unassigned) [Example 196] show?
Result: 4.7 nM

----------
MEASUREMENT TARGET: Human plasma kallikrein (Homo sapiens, UniProt P03952)
Construct: yields a heavy chain (371 amino acids) and a light chain (248 amino acids)
Sequence (P03952 391-638 limits assumed): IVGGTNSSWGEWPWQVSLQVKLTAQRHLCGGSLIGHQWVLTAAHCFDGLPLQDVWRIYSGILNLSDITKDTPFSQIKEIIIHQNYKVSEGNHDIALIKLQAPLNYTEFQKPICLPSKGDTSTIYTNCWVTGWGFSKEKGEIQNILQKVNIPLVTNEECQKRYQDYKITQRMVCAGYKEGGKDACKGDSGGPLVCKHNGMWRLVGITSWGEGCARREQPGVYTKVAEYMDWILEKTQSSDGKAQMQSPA
Sequence (P03952 20-390 partner limits assumed): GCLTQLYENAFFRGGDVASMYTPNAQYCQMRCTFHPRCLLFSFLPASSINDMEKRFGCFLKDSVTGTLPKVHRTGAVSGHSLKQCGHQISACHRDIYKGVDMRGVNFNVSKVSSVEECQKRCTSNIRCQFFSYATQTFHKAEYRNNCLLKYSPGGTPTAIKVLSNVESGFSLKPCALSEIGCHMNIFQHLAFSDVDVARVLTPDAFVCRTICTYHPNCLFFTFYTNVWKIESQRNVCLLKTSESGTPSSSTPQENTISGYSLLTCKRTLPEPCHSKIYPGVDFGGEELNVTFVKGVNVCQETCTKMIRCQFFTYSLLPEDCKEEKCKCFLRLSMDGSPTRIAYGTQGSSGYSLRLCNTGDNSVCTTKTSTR
PROTOCOL SUMMARY: Plasma Kallikrein Assay
MEASUREMENT CONDITIONS: purified Human plasma kallikrein 0.5 nM, substrate Acetyl-K-P-R-AFC, pH 7.4
Let's look at some molecules and their measured pIC50.
Value format note: pIC50 is -log10 of concentration (mol/L); just state the number.

1) O=C(Nc1cnn(Cc2cnc(N3CC4C(C3)C4(F)F)nc2)c1)c1cncc(-c2c(C(F)F)ccc(Cl)c2F)n1 (stereo not drawn)    7.75

Request: Bench note: what pIC50 did CC(c1cnc(N2CC[C@H]2CN(C)[C@H]2CCC[C@@H]2O)nc1)n1cc(NC(=O)c2cncc(-c3c(C(F)F)ccc(Cl)c3F)n2)cn1 (stereo partly drawn) show?
Result: 8.38

Request: Bench note: what pIC50 did C[C@@H](c1cnc(N2C[C@@H]3C[C@@H]3[C@@H]2CO)nc1)n1cc(NC(=O)c2cncc(-c3c(C(F)F)ccc(Cl)c3F)n2)cn1 (single isomer, unassigned) [Example 74] show?
Result: 8.37

Request: Bench note: what pIC50 did `CN1C2CCC1CN(c1ccc(Cn3cc(NC(=O)c4cncc(-c5c(C(F)F)ccc(Cl)c5F)n4)cn3)cn1)C2` show?
Result: 7.85

----------
MEASUREMENT TARGET: UniProtKB P03951
Sequence (P03951 388-625 limits assumed): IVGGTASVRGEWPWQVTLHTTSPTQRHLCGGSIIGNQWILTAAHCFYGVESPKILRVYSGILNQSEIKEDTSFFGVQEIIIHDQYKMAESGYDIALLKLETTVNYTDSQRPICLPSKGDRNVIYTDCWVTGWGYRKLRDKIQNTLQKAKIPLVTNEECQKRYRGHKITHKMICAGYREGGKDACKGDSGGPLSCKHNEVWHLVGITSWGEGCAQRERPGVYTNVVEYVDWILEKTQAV
Sequence (P03951 19-387 partner limits assumed): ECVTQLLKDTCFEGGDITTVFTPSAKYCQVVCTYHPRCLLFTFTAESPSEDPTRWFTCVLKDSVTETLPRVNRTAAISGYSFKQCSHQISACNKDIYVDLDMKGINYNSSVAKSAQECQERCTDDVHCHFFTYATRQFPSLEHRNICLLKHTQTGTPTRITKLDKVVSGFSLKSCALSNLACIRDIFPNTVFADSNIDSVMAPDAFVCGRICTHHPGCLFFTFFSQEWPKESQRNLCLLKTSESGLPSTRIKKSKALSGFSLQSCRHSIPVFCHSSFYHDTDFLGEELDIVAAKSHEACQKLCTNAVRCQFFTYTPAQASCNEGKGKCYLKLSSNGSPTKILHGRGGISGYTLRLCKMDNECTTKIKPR
# YES = IC50 below 2000 nM (exclusive); NO = IC50 at/above 2000 nM

1. CC1(O)CCN(C[C@@H]2CCCN2c2ncc(Cn3cc(NC(=O)c4cncc(-c5c(C(F)F)ccc(Cl)c5F)n4)cn3)cn2)C1 (stereo partly shown)    NO
2. C[C@H]1[C@@H](O)CCN1C[C@@H]1CCCN1c1ncc(Cn2cc(NC(=O)c3cncc(-c4c(C(F)F)ccc(Cl)c4F)n3)cn2)cn1    NO

// next entry
Request: Decide: IC50 of CC(c1cnc(N2CC3(CC3)C2)nc1)n1cc(NC(=O)c2cncc(-c3c(C(F)F)ccc(Cl)c3F)n2)cn1 (stereo not shown) strictly below 2000 nM?
Result: NO

----------
MEASUREMENT TARGET: Human plasma kallikrein (Homo sapiens, UniProt P03952)
Construct: yields a heavy chain (371 amino acids) and a light chain (248 amino acids)
PROTOCOL SUMMARY: Plasma Kallikrein Assay
MEASUREMENT CONDITIONS: purified Human plasma kallikrein 0.5 nM, substrate Acetyl-K-P-R-AFC, pH 7.4
METRIC NAME: pIC50
Value format note: pIC50 is -log10 of concentration (mol/L); just state the number.

Worked set:
1. O=C(Nc1cnn(Cc2cnc(N3CCC3)nc2C(F)F)c1)c1cncc(-c2c(C(F)F)ccc(Cl)c2F)n1    7.84
2. C[C@H](CO)NC[C@@H]1[C@@H]2C[C@@H]2CN1c1ncc(Cn2cc(NC(=O)c3cncc(-c4c(C(F)F)ccc(Cl)c4F)n3)cn2)cn1    9.40

Request: Bench note: what pIC50 did Cc1nc(N2CCC2)ncc1[C@@H](C)n1cc(NC(=O)c2cncc(-c3c(C(F)F)ccc(Cl)c3F)n2)cn1 (single isomer, unassigned) show?
Result: 8.85

Request: Bench note: what pIC50 did `N#Cc1cc(N2CCC2)ncc1Cn1cc(NC(=O)c2cncc(-c3c(C(F)F)ccc(Cl)c3F)n2)cn1` show?
Result: 8.08

Request: Bench note: what pIC50 did `C[C@@H](c1cnc(N2CCC2)nc1)n1cc(NC(=O)c2cncc(-c3c(C(F)F)ccc(Cl)c3F)n2)cn1` show?
Result: 8.18

Request: Bench note: what pIC50 did CC(c1cnc(N2CC[C@H]2CN2CC(O)C2)nc1)n1cc(NC(=O)c2cncc(-c3c(C(F)F)ccc(Cl)c3F)n2)cn1 (stereo partly drawn) show?
Result: 8.80
